The reported measurements were obtained from the supplement of paper PMC6555819.

system: PPARg DBDmut IVT, anti-PPARg (DBD mutation: PPARg1 K132A/R137A, NR concentration 270 nM); test: PBM binding z-score (relative to random genomic background probes); higher = stronger binding; sequences stand for … in GC…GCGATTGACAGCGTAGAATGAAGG
PBM binding z-score class ranges: group A = under -0.2, group B = from -0.2 up to 0.3, group C = 0.3 and over

Answered examples (5):
# macromolecule.sequence, tgt, category.label
records = [
    ("CCTCGTTGGTCAAGGTCACACACGCTATAGGTAC", "PPARg DBDmut IVT, anti-PPARg (DBD mutation: PPARg1 K132A/R137A, NR concentration 270 nM)", "group B"),
    ("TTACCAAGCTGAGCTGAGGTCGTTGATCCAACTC", "PPARg DBDmut IVT, anti-PPARg (DBD mutation: PPARg1 K132A/R137A, NR concentration 270 nM)", "group A"),
    ("CTTCCAAGGTCATAGGAGGTCAGTGAAGACAGAT", "PPARg DBDmut IVT, anti-PPARg (DBD mutation: PPARg1 K132A/R137A, NR concentration 270 nM)", "group C"),
    ("AGAATGAGGTTATACGTAGATCCGGGAAGAAAGT", "PPARg DBDmut IVT, anti-PPARg (DBD mutation: PPARg1 K132A/R137A, NR concentration 270 nM)", "group B"),
    ("CCGAGTAGGTTATGGGCCATTCAGGCAACGGTGA", "PPARg DBDmut IVT, anti-PPARg (DBD mutation: PPARg1 K132A/R137A, NR concentration 270 nM)", "group A"),
]

IN: Hi, small favor: classify `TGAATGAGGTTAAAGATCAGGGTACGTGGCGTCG` by its PBM binding z-score when you get a moment.
OUT: group B

IN: Hi, small favor: classify `CATAGCAGGCCAGGGTCACTCAAGCATTTCGCTT` by its PBM binding z-score when you get a moment.
OUT: group A

IN: Hi, small favor: classify `TTACGAAGGTGAGCTGAGGTCGTTGATCCAACTC` by its PBM binding z-score when you get a moment.
OUT: group B

IN: Hi, small favor: classify `TAGCCTAGGTCATGCGTGCCAGTATAGTGTCGGC` by its PBM binding z-score when you get a moment.
OUT: group C

IN: Hi, small favor: classify `CCTTACGGGTCACTCCAGGTTAAAGCATCGGAGT` by its PBM binding z-score when you get a moment.
OUT: group A

IN: Hi, small favor: classify `CCTTACGGGTCACTGCAGGTTATAGCATCGGAGT` by its PBM binding z-score when you get a moment.
OUT: group B

====

Overview of reported PBM binding z-score across a group of sequences:
tested on: PPARg:RXRa IVT, anti-PPARg (NR concentration 270 nM, RXRa partner concentration 90 nM); test: PBM binding z-score (relative to random genomic background probes); higher = stronger binding; sequences stand for … in GC…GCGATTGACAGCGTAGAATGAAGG
Form: value (number only, do not type unit).

# macromolecule.sequence, measured.parameter, result.value
records = [
    ("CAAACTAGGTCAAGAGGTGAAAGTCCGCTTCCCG", "PBM binding z-score", 8.63),
]

IN: So what does the record say about PBM binding z-score for `CCAGACAGGTGAGAAGGCAACTCAGCCTCGATTA` ?
OUT: 0.413

IN: So what does the record say about PBM binding z-score for `TCTAGTTGGTCACGGAGGCCACACACGACGGGTA` ?
OUT: 2.47

IN: So what does the record say about PBM binding z-score for `CCGACTGGGGCAAAGGTGACCATACTCAGTACGA` ?
OUT: 5.24

IN: So what does the record say about PBM binding z-score for `TGAATGAGGCTAAAGATCAGGGAACGTGGCGTCG` ?
OUT: 1.02

IN: So what does the record say about PBM binding z-score for `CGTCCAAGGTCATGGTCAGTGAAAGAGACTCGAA` ?
OUT: 3.62

IN: So what does the record say about PBM binding z-score for `CAACCTAGGTCAGGGCCAGTATAGGAGGAACGTT` ?
OUT: 3.26

IN: So what does the record say about PBM binding z-score for `CCTAGTTGGTCAAGGTTACACACGCTATAGGTAC` ?
OUT: 2.24
